- test_system: glutathione-S-transferase (GST) tagged LXRalpha LBD (ligand binding domain) (Homo sapiens, UniProt Q13133)
- Construct: purchased Invitrogen pv4655
- Sequence (Q13133 209-447 limits assumed): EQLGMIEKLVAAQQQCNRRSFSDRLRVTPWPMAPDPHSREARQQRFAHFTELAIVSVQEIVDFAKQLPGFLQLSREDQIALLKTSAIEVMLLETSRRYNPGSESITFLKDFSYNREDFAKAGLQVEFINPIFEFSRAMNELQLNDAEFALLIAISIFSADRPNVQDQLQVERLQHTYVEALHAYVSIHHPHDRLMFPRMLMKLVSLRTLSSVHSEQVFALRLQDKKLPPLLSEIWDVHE
- method_notes: LanthaScreen TR-FRET Liver X Receptor Coactivator Assay, LXR alpha-LBD
- Type: biochemical
- recorded_conditions: efficacy in relation to reference dual agonist T1317; read-out: LXR alpha activity at max dose (%) (Emax)
Documented Emax across a set of compounds
readout_type: Emax (%)

1. CN(C)C(=O)c1ccc(-c2cnc(N3CCN(C(=O)C(C)(C)C)CC3)c(C#N)c2)cc1Cl [Example 2-3] :: 67
2. CN(C)C(=O)c1ccc(-c2ccc(N3CCN(C(=O)c4ccccc4Cl)CC3)c(Cl)c2)cc1Cl [Example 4-4] :: 44
3. CN(CC(O)CO)C(=O)c1ccc(-c2cnc(N3CCN(C(=O)OC(C)(C)C)CC3)c(C#N)c2)cc1Cl (stereo not drawn) [Example 5-18] :: 40
4. CN(C)C(=O)c1ccc(-c2ccc(N3CC4CCC(C3)N4C(=O)OC(C)(C)C)cc2)cc1Cl [Example 8-3] :: 64
5. CN(C)C(=O)c1ccc(-c2cnc(N3CCN(C(=O)OCc4ccccc4F)CC3)c(C#N)c2)cc1Cl [Example 3-6] :: 50
6. CN(C)C(=O)c1ccc(-c2cnc(N3CCN(C(=O)OC(C)(C)C)CC3)c(CO)c2)cc1Cl [Example 9-3] :: 34
7. COc1ccccc1COC(=O)N1CCN(c2ncc(-c3ccc(C(=O)N(C)C)c(Cl)c3)cc2C#N)CC1 [Example 3-7] :: 41
8. COc1ccc(COC(=O)N2CCN(c3ncc(-c4ccc(C(=O)N(C)C)c(Cl)c4)cc3C#N)CC2)cc1 [Example 3-8] :: 65
9. CN(Cc1cnn(C)c1)C(=O)c1ccc(-c2cnc(N3CCN(C(=O)OC(C)(C)C)CC3)c(C#N)c2)cc1Cl [Example 5-22] :: 34

====

- test_system: glutathione-S-transferase (GST) tagged LXRalpha LBD (ligand binding domain) (Homo sapiens, UniProt Q13133)
- method_notes: LanthaScreen TR-FRET Liver X Receptor Coactivator Assay, LXR alpha-LBD
- recorded_conditions: potency (Inflection Point) of co-activator recruitment, TR-FRET; read-out: LXR alpha IP
pEC50: −log10 of the molar value.
Each item that follows carries a reported pEC50.
readout_type: pEC50

1) CCCCC(C)(C)C(=O)N1CCN(c2ncc(-c3ccc(C(=O)N(C)C)c(Cl)c3)cc2C#N)CC1 [Example 2-12] :: 5.76
2) CN(C)C(=O)c1ccc(-c2cnc(N3CC4CCC3CN4C(=O)OC(C)(C)C)c(C#N)c2)cc1Cl (stereo not drawn) [Example 8-8] :: 6.05
3) CN(C)C(=O)c1ccc(-c2cnc(N3CCN(C(=O)C(O)(CCc4ccccc4)C(F)(F)F)CC3)c(C#N)c2)cc1Cl (stereo not drawn) [Example 2-37] :: 4.01
4) CN(C)C(=O)c1ccc(-c2cc(Cl)c(N3CCN(S(=O)(=O)c4c(Cl)cccc4Cl)CC3)c(Cl)c2)cc1Cl [Example 4-10] :: 5.90
5) CN(C)C(=O)c1ccc(-c2cnc(N3CCN(C(=O)OC(C)(C)C)C(c4ccccc4)C3)c(C#N)c2)cc1Cl (stereo not drawn) [Example 8-12] :: 6.02
6) CN(C)C(=O)c1ccc(-c2cnc(N3CCN(S(=O)(=O)c4ccccc4OC(F)(F)F)CC3)c(C#N)c2)cc1Cl [Example 1-14] :: 5.98
7) CN(C)C(=O)c1ccc(-c2ccc(N3CCN(C(=O)c4c(F)cccc4C(F)(F)F)CC3)c(Cl)c2)cc1Cl [Example 4-7] :: 5.89
8) CCc1cc(-c2cnc(N3CCN(C(=O)OC(C)(C)C)CC3)c(C#N)c2)ccc1C(=O)N(C)C [Example 8-17] :: 5.13
9) COc1ccc2nc(CCN(C)C(=O)c3ccc(-c4cnc(N5CCN(C(=O)OC(C)(C)C)CC5)c(C#N)c4)cc3Cl)[nH]c2c1 [Example 5-33] :: 5.32
10) CN(C)C(=O)c1ccc(-c2cnc(N3CCN(C(=O)C45CC(C4)C5)CC3)c(C#N)c2)cc1Cl [Example 2-4] :: 4.89
11) CN(C)C(=O)c1ccc(-c2cnc(N3CCN(C(=O)OCc4ccccc4F)CC3)c(C#N)c2)cc1Cl [Example 3-6] :: 5.18
12) CN(C)C(=O)c1ccc(-c2cnc(N3CCN(S(=O)(=O)Cc4ccccc4Cl)CC3)c(C#N)c2)cc1Cl [Example 1-12] :: 5.13
13) CN(C)C(=O)c1ccc(-c2cnc(N3CCN(C(=O)OCC4(C)CC4)CC3)c(C#N)c2)cc1Cl [Example 3-12] :: 5.36
14) CN(C)C(=O)c1ccc(-c2cnc(N3CCN(S(=O)(=O)c4cccnc4)CC3)c(C#N)c2)cc1Cl [Example 1-5] :: 4.22
15) CN(C)C(=O)c1ccc(-c2cnc(N3CCN(C(=O)OC(C)(C)C)CC3)c(Cl)c2)cc1Cl [Example 9-1] :: 5.87
16) CC(C)(C)OC(=O)N1CCN(c2ncc(-c3ccc(C(=O)N(CCO)Cc4ccccc4)c(Cl)c3)cc2C#N)CC1 [Example 5-30] :: 5.00
17) CC(C)(C)OC(=O)N1CCN(c2ncc(-c3ccc(C(N)=O)c(Cl)c3)cc2C#N)CC1 [Example 5-2] :: 5.69
18) CN(C)C(=O)c1ccc(-c2cnc(N3CCN(C(=O)C(O)(C(F)(F)F)C(F)(F)F)CC3)c(C#N)c2)cc1Cl [Example 2-30] :: 5.28
19) CC(C)(C)OC(=O)N1CCN(c2ncc(-c3ccc(C(=O)NCCCO)c(Cl)c3)cc2C#N)CC1 [Example 5-10] :: 5.57
20) CN(CC(O)CO)C(=O)c1ccc(-c2cnc(N3CCN(C(=O)OC(C)(C)C)CC3)c(C#N)c2)cc1Cl (stereo not drawn) [Example 5-18] :: 5.07
21) CN(C)C(=O)c1ccc(-c2ccc(N3CC4CCC(C3)N4S(=O)(=O)c3c(Cl)cccc3Cl)cc2)cc1Cl [Example 8-14] :: 5.46
